# kinase still bound, per cent of control per entry
Tgt: UniProt Q9H2X6
Sequence (Q9H2X6 whole entry, looked up): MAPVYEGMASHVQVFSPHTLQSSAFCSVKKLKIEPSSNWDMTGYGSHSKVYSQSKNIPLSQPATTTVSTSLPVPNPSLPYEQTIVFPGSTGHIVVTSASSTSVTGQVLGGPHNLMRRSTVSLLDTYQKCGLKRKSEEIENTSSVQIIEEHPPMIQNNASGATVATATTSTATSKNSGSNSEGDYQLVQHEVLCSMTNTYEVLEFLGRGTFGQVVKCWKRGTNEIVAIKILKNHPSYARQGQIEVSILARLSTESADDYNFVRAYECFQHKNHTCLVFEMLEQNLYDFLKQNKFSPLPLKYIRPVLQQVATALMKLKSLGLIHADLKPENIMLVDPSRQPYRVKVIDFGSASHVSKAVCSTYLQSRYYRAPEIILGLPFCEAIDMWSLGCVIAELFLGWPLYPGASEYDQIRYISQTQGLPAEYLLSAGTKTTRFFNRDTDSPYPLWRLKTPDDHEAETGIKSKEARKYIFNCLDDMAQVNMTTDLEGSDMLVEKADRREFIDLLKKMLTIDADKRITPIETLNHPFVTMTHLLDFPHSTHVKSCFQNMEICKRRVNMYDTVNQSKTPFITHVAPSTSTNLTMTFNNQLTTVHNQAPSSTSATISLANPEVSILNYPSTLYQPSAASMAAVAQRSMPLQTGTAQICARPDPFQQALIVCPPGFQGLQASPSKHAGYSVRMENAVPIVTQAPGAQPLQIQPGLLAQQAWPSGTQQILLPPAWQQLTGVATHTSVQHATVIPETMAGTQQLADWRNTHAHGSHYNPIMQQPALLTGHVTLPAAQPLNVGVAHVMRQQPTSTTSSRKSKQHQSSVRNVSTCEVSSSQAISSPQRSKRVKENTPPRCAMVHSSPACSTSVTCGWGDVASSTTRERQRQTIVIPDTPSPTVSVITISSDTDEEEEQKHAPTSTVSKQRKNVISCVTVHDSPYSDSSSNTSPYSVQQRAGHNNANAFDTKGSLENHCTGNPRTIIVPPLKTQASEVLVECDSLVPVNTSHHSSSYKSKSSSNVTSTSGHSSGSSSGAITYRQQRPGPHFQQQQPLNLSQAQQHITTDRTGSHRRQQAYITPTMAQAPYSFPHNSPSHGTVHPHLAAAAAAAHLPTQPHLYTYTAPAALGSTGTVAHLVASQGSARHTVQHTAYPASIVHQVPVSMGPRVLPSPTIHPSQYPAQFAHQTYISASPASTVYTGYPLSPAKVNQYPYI
Experimental Protocol: KINOMEscan competition binding
Study Conditions: compound 10.0 µM

| Smiles String | kinase still bound, per cent of control, % |
| --- | --- |
| O=C(Nc1cccc(Nc2ncc(Br)c(NCCc3cnc[nH]3)n2)c1)N1CCCC1 | 1.6 |
| C[C@@H](Oc1cc(-c2cnn(C3CCNCC3)c2)cnc1N)c1c(Cl)ccc(F)c1Cl | 93 |
| C=CC(=O)Nc1cc(-n2c(=O)ccc3cnc4ccc(-c5cn[nH]c5)cc4c32)ccc1C | 48 |
| CCN(CC)CCCCNc1ncc2c(n1)N(C)C(=O)N(c1c(Cl)c(OC)cc(OC)c1Cl)C2 | 100 |
| COc1cc(N2CCN(C)CC2)ccc1Nc1ncc2c(n1)N(C)c1ccccc1C(=O)N2C | 100 |
| O=C1NC(=O)/C(=C/c2ccc3nccc(-c4ccncc4)c3c2)S1 | 0.15 |
| CN(C)C/C=C/C(=O)Nc1ccc(C(=O)Nc2cccc(Nc3nccc(-c4cccnc4)n3)c2)cc1 | 2.6 |
| CCN1CCN(C(=O)Cc2ccc(Nc3ncc(F)c(Nc4ccc(C(=O)Nc5ccccc5Cl)cc4)n3)cc2)CC1 | 5 |
| COc1cc2ncnc(-n3nc(-c4ccccn4)nc3N)c2cc1OC | 0.65 |

###

Tgt: PI4KB (human)
Experimental Protocol: KINOMEscan competition binding
Study Conditions: compound 10.0 µM
# kinase still bound, per cent of control per entry

| Smiles String | kinase still bound, per cent of control [%] |
| --- | --- |
| COCC(=O)NC/C=C/c1ccc2ncnc(Nc3ccc(Oc4ccc(C)nc4)c(C)c3)c2c1 | 100 |
| COc1cc(N2CCN(C)CC2)ccc1Nc1ncc2c(n1)N(C)c1ccccc1C(=O)N2C | 100 |
| N#CCNC(=O)c1ccc(-c2ccnc(Nc3ccc(N4CCOCC4)cc3)n2)cc1 | 17 |
| CCN(CC)CCCCNc1ncc2c(n1)N(C)C(=O)N(c1c(Cl)c(OC)cc(OC)c1Cl)C2 | 100 |
| CN(C)C/C=C/C(=O)Nc1ccc(C(=O)Nc2cccc(Nc3nccc(-c4cccnc4)n3)c2)cc1 | 51 |
| CCN1CCN(C(=O)Cc2ccc(Nc3ncc(F)c(Nc4ccc(C(=O)Nc5ccccc5Cl)cc4)n3)cc2)CC1 | 100 |
| COc1ccc(N(C(=O)Oc2c(C)cccc2C)c2ccnc(Nc3ccc(N4CCN(C)CC4)cc3)n2)c(OC)c1 | 100 |
| C=CC(=O)Nc1cc(-n2c(=O)ccc3cnc4ccc(-c5cn[nH]c5)cc4c32)ccc1C | 2.3 |
| COc1cc(C(=O)N2CCC(N3CCN(C)CC3)CC2)ccc1Nc1ncc2c(n1)N(C)c1ccccc1C(=O)N2C | 95 |

###

Tgt: ADCK4 (human) (UniProt Q96D53)
Sequence (Q96D53 whole entry, looked up): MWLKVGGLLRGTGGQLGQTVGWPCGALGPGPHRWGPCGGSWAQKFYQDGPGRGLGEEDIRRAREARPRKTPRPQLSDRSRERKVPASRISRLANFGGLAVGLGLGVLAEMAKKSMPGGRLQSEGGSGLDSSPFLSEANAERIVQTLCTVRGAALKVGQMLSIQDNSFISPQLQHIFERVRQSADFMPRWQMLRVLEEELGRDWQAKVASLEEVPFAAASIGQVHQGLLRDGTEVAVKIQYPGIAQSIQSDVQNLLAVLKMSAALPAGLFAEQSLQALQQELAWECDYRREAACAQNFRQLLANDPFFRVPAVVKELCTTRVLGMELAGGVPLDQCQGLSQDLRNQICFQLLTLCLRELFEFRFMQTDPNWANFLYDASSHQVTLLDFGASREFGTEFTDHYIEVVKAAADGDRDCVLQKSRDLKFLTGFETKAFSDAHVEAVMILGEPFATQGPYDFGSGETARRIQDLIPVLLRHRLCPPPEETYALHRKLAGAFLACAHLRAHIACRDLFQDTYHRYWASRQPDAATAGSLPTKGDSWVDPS
Experimental Protocol: KINOMEscan competition binding
Study Conditions: compound 10.0 µM
# label = YES if kinase still bound, per cent of control < 70% else NO

| Smiles String | Answer Label |
| --- | --- |
| CCN(CC)CCCCNc1ncc2cc(-c3cc(OC)cc(OC)c3)c(NC(=O)NC(C)(C)C)nc2n1 | NO |
| N#CCNC(=O)c1ccc(-c2ccnc(Nc3ccc(N4CCOCC4)cc3)n2)cc1 | YES |
| COCC(=O)NC/C=C/c1ccc2ncnc(Nc3ccc(Oc4ccc(C)nc4)c(C)c3)c2c1 | NO |
| O=C(Nc1cccc(Nc2ncc(Br)c(NCCc3cnc[nH]3)n2)c1)N1CCCC1 | YES |
| COc1cc2ncnc(-n3nc(-c4ccccn4)nc3N)c2cc1OC | YES |
| Cc1n[nH]c2ccc(-c3cncc(OC[C@@H](N)Cc4c[nH]c5ccccc45)c3)cc12 | NO |
| O=c1cc(N2CCOCC2)oc2c(-c3cccc4c3sc3ccccc34)cccc12 | NO |
| CNC(=O)c1ccc(Nc2cc(Nc3ccccc3S(=O)(=O)C(C)C)c3cc[nH]c3n2)nc1 | YES |
| COc1cc(N2CCN(C)CC2)ccc1Nc1ncc2c(n1)N(C)c1ccccc1C(=O)N2C | NO |
| CCN1CCN(C(=O)Cc2ccc(Nc3ncc(F)c(Nc4ccc(C(=O)Nc5ccccc5Cl)cc4)n3)cc2)CC1 | YES |
| NC(=O)Nc1cc(-c2cccc(F)c2)sc1C(=O)N[C@@H]1CCCNC1 | YES |
| COc1ccc(N(C(=O)Oc2c(C)cccc2C)c2ccnc(Nc3ccc(N4CCN(C)CC4)cc3)n2)c(OC)c1 | YES |
| C[C@@H](Oc1cc(-c2cnn(C3CCNCC3)c2)cnc1N)c1c(Cl)ccc(F)c1Cl | YES |
| O=C1NC(=O)/C(=C/c2ccc3nccc(-c4ccncc4)c3c2)S1 | YES |
| CCN(CC)CCCCNc1ncc2c(n1)N(C)C(=O)N(c1c(Cl)c(OC)cc(OC)c1Cl)C2 | NO |
| CNC(=O)c1cc(Oc2ccc(NC(=O)Nc3ccc(Cl)c(C(F)(F)F)c3)cc2)ccn1 | NO |
| C=CC(=O)Nc1cc(-n2c(=O)ccc3cnc4ccc(-c5cn[nH]c5)cc4c32)ccc1C | NO |
| C=CC(=O)Nc1ccc(CN(C(=O)Nc2c(Cl)c(OC)cc(OC)c2Cl)c2cc(Nc3ccc(N4CCN(C)CC4)cc3)ncn2)cc1 | NO |

###

Tgt: PDPK1 (human)
Experimental Protocol: KINOMEscan competition binding
Study Conditions: compound 10.0 µM
# kinase still bound, per cent of control per entry

| Smiles String | kinase still bound, per cent of control, % |
| --- | --- |
| N#CCNC(=O)c1ccc(-c2ccnc(Nc3ccc(N4CCOCC4)cc3)n2)cc1 | 100 |
| O=C(Nc1cccc(Nc2ncc(Br)c(NCCc3cnc[nH]3)n2)c1)N1CCCC1 | 2.4 |
| CNC(=O)c1cc(Oc2ccc(NC(=O)Nc3ccc(Cl)c(C(F)(F)F)c3)cc2)ccn1 | 76 |
| COc1cc(N2CCN(C)CC2)ccc1Nc1ncc2c(n1)N(C)c1ccccc1C(=O)N2C | 100 |
| O=c1cc(N2CCOCC2)oc2c(-c3cccc4c3sc3ccccc34)cccc12 | 95 |
| CCN1CCN(C(=O)Cc2ccc(Nc3ncc(F)c(Nc4ccc(C(=O)Nc5ccccc5Cl)cc4)n3)cc2)CC1 | 96 |
| COCC(=O)NC/C=C/c1ccc2ncnc(Nc3ccc(Oc4ccc(C)nc4)c(C)c3)c2c1 | 100 |
| C[C@@H](Oc1cc(-c2cnn(C3CCNCC3)c2)cnc1N)c1c(Cl)ccc(F)c1Cl | 100 |
| COc1ccc(N(C(=O)Oc2c(C)cccc2C)c2ccnc(Nc3ccc(N4CCN(C)CC4)cc3)n2)c(OC)c1 | 82 |

###

Tgt: STK39 (human) (UniProt Q9UEW8)
Experimental Protocol: KINOMEscan competition binding
Study Conditions: compound 10.0 µM
# label = fulfilled if kinase still bound, per cent of control < 60% else not fulfilled

| Smiles String | Answer Label |
| --- | --- |
| CS(=O)(=O)N1CCN(Cc2cc3nc(-c4cccc5[nH]ncc45)nc(N4CCOCC4)c3s2)CC1 | not fulfilled |
| COc1ccc(N(C(=O)Oc2c(C)cccc2C)c2ccnc(Nc3ccc(N4CCN(C)CC4)cc3)n2)c(OC)c1 | not fulfilled |
| CCN1CCN(C(=O)Cc2ccc(Nc3ncc(F)c(Nc4ccc(C(=O)Nc5ccccc5Cl)cc4)n3)cc2)CC1 | not fulfilled |
| CN(C)C/C=C/C(=O)Nc1ccc(C(=O)Nc2cccc(Nc3nccc(-c4cccnc4)n3)c2)cc1 | fulfilled |
| O=C(Nc1cccc(Nc2ncc(Br)c(NCCc3cnc[nH]3)n2)c1)N1CCCC1 | not fulfilled |
| N#CCNC(=O)c1ccc(-c2ccnc(Nc3ccc(N4CCOCC4)cc3)n2)cc1 | fulfilled |
| O=C1NC(=O)/C(=C/c2ccc3nccc(-c4ccncc4)c3c2)S1 | not fulfilled |
| COc1cc2ncnc(-n3nc(-c4ccccn4)nc3N)c2cc1OC | not fulfilled |
| COc1cc(N2CCN(C)CC2)ccc1Nc1ncc2c(n1)N(C)c1ccccc1C(=O)N2C | fulfilled |
| NC(=O)Nc1cc(-c2cccc(F)c2)sc1C(=O)N[C@@H]1CCCNC1 | fulfilled |
| C=CC(=O)Nc1cc(-n2c(=O)ccc3cnc4ccc(-c5cn[nH]c5)cc4c32)ccc1C | not fulfilled |
| O=c1cc(N2CCOCC2)oc2c(-c3cccc4c3sc3ccccc34)cccc12 | not fulfilled |
| CCN(CC)CCCCNc1ncc2c(n1)N(C)C(=O)N(c1c(Cl)c(OC)cc(OC)c1Cl)C2 | not fulfilled |

###

Tgt: UniProtKB P48736
Sequence (P48736 whole entry, looked up): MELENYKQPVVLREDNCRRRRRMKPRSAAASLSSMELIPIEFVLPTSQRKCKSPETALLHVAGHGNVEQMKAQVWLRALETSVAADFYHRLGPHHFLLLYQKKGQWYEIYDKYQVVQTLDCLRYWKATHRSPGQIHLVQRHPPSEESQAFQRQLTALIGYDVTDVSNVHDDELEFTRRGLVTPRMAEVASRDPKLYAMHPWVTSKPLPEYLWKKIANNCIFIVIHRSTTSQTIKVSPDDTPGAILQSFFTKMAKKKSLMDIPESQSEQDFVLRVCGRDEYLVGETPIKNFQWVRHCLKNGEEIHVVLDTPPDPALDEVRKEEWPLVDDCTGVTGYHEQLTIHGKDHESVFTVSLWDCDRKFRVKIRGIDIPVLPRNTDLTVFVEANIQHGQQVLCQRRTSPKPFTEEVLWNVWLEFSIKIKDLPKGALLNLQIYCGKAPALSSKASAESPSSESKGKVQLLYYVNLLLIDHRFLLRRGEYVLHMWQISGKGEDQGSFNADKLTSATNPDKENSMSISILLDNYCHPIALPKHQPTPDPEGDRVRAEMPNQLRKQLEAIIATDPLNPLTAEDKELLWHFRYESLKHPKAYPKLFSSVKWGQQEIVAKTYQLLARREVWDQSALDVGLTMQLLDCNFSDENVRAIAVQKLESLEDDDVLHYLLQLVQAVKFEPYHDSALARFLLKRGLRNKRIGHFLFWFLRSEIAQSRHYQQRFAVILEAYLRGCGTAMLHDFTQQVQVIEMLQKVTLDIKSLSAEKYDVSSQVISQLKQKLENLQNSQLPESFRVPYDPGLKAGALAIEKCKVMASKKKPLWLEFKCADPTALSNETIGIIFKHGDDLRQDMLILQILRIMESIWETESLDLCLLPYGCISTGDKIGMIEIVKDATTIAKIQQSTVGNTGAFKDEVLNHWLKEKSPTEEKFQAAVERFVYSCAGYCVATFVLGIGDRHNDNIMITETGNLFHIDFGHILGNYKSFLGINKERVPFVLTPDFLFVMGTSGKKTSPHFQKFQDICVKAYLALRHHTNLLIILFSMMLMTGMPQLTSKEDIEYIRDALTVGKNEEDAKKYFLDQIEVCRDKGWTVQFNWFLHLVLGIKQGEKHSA
Experimental Protocol: KINOMEscan competition binding
Study Conditions: compound 10.0 µM
# label = condition met if kinase still bound, per cent of control < 20% else condition not met

| Smiles String | Answer Label |
| --- | --- |
| COc1ccc(N(C(=O)Oc2c(C)cccc2C)c2ccnc(Nc3ccc(N4CCN(C)CC4)cc3)n2)c(OC)c1 | condition not met |
| NC(=O)Nc1cc(-c2cccc(F)c2)sc1C(=O)N[C@@H]1CCCNC1 | condition not met |
| O=C1NC(=O)/C(=C/c2ccc3nccc(-c4ccncc4)c3c2)S1 | condition met |
| CNC(=O)c1ccc(Nc2cc(Nc3ccccc3S(=O)(=O)C(C)C)c3cc[nH]c3n2)nc1 | condition not met |
| COc1cc2ncn(-c3cc(OCc4ccccc4C(F)(F)F)c(C(N)=O)s3)c2cc1OC | condition met |
| CCN1CCN(C(=O)Cc2ccc(Nc3ncc(F)c(Nc4ccc(C(=O)Nc5ccccc5Cl)cc4)n3)cc2)CC1 | condition not met |
| C=CC(=O)Nc1ccc(CN(C(=O)Nc2c(Cl)c(OC)cc(OC)c2Cl)c2cc(Nc3ccc(N4CCN(C)CC4)cc3)ncn2)cc1 | condition not met |
| CN(C)C/C=C/C(=O)Nc1ccc(C(=O)Nc2cccc(Nc3nccc(-c4cccnc4)n3)c2)cc1 | condition met |
| COc1cc(C(=O)N2CCC(N3CCN(C)CC3)CC2)ccc1Nc1ncc2c(n1)N(C)c1ccccc1C(=O)N2C | condition met |
